target: D3 subtype (Homo sapiens, UniProt P35462)
Sequence (P35462 whole entry): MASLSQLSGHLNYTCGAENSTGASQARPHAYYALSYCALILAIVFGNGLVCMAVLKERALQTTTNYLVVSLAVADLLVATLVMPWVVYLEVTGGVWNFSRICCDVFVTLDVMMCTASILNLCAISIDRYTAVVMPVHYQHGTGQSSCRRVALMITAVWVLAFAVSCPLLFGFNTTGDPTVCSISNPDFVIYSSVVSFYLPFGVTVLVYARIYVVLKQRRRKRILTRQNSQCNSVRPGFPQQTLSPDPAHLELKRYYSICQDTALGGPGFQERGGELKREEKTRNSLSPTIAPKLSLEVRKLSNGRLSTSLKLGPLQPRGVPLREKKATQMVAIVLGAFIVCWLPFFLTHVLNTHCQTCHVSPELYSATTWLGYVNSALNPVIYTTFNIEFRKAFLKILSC
property: Ki (nM)
Provide only the numeric value, understood in nM.

// recorded Ki for COc1ccccc1N1CCN(CCN(C(=O)C2CCC(CF)CC2)c2ccccn2)CC1 (stereo not shown) : 139

---

target: multidrug resistance 1 protein (MDR1; P-glycoprotein) (Homo sapiens); assay: Multidrug resistance; format: biochemical; details: read-out: IC50 as potential substrate of MDR1 (P-glycoprotein)
pIC50: −log10 of the molar value.
property: pIC50

The recorded pIC50 for entry COc1ccccc1N1CCN(CCN(C(=O)C2CCC(CF)CC2)c2ccccn2)CC1 (stereo not shown) equals < 4.52

---

Target: serotonin 5-HT1A receptor (Homo sapiens, UniProt P08908)
Sequence (P08908 1-422): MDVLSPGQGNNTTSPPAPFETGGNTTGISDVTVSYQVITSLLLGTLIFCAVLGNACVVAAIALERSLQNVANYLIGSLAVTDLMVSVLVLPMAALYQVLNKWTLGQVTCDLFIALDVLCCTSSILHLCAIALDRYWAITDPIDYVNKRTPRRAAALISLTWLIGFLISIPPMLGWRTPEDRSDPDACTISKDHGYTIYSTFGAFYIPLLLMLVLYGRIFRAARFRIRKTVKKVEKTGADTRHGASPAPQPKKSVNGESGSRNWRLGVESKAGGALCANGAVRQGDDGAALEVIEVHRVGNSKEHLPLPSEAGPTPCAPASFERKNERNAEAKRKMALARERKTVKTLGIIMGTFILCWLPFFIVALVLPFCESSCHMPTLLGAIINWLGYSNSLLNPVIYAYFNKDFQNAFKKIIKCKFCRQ
Assay type: binding
Details: read-out: Binding affinity, Ki, 5-HT1A; human cloned receptor, PDSP
property: pKi
Remember, pKi is on a log scale: it is -log10 of the molar concentration.

# COc1ccccc1N1CCN(CCN(C(=O)C2CCC(CF)CC2)c2ccccn2)CC1 (stereo not shown) with serotonin 5-HT1A receptor (Homo sapiens, UniProt P08908): pKi is 9.05

---

molecular target: 5-HT2B (Homo sapiens, UniProt P41595)
Sequence (P41595 whole entry): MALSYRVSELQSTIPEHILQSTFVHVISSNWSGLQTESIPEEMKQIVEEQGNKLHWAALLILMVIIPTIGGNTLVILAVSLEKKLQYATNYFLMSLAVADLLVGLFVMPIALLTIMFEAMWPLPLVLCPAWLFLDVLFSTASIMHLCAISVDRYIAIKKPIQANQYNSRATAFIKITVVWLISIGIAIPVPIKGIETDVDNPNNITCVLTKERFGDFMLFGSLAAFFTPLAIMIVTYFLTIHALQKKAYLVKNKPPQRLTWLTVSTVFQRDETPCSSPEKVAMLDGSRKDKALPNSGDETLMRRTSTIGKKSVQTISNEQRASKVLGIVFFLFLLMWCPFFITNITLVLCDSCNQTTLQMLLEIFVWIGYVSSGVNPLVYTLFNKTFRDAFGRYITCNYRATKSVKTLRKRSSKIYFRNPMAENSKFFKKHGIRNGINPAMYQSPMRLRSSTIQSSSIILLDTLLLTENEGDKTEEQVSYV
property: pKi
Lab note — pKi values are minus log10 of concentrations in M.

Form field pKi, entry COc1ccccc1N1CCN(CCN(C(=O)C2CCC(CF)CC2)c2ccccn2)CC1 (stereo not shown) : 6.59

---

target: adrenergic α1A (Homo sapiens)
Sequence (P35348 whole entry): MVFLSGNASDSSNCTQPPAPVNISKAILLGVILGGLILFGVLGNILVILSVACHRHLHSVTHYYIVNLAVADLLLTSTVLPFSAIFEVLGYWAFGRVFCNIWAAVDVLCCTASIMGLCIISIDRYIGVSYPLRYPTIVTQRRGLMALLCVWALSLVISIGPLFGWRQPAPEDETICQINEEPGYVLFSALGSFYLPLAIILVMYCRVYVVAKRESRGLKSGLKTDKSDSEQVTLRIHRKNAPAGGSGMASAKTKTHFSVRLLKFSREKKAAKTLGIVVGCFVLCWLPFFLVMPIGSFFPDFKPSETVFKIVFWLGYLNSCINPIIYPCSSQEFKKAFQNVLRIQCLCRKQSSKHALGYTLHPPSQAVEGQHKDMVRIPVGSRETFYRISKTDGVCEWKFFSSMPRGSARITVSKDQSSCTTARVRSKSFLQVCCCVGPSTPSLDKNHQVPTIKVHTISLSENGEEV
property: Ki (nM)
The reply should be a number in nM, with the unit left off.

The measured Ki associated with COc1ccccc1N1CCN(CCN(C(=O)C2CCC(CF)CC2)c2ccccn2)CC1 (stereo not shown) [Mefway] reads 70

---

molecular target: D2 subtype (Homo sapiens); assay: NIMH PDSP binding affinity, human cloned receptor; settings: read-out: Affinity, D2 subtype
Sequence (P14416 whole entry): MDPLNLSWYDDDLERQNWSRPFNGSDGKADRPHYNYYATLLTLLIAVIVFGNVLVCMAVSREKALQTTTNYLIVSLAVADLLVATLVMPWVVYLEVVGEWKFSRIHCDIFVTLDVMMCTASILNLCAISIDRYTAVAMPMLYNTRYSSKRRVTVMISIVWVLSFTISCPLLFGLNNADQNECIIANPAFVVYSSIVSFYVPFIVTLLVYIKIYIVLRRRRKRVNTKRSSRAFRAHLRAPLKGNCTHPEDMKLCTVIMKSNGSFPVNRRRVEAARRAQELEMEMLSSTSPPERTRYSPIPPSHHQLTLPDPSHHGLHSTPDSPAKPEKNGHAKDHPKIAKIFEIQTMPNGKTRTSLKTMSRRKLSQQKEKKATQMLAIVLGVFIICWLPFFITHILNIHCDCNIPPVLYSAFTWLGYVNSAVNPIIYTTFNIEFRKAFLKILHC
property: pKi
pKi is a log-scale quantity: -log10 of the concentration expressed in molar.

Item: COc1ccccc1N1CCN(CCN(C(=O)C2CCC(CF)CC2)c2ccccn2)CC1 (stereo not shown) | pKi: 6.73

---

target: 5-HT7 (Homo sapiens); experiment: NIMH PDSP binding affinity, human cloned receptor; settings: read-out: Binding affinity, Ki, 5-HT7; human cloned receptor, PDSP
Sequence (P34969 whole entry): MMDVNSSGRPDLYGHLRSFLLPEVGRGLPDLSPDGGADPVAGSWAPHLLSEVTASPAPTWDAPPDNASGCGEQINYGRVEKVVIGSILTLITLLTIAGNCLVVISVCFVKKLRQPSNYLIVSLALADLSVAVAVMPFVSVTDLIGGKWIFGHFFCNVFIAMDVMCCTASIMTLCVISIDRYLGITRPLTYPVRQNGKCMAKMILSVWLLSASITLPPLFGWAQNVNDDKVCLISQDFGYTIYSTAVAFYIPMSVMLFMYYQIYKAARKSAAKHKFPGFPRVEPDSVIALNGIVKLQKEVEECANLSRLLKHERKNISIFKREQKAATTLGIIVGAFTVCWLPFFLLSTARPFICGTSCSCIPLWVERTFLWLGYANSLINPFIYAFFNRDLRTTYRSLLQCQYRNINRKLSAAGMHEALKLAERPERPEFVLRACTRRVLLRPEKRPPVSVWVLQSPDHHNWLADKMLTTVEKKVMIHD
property: pKi
Convention used: pKi is expressed as -log10 of the molar concentration.

pKi measured on COc1ccccc1N1CCN(CCN(C(=O)C2CCC(CF)CC2)c2ccccn2)CC1 (stereo not shown) = 6.53
